target: Jak2 (UniProt O60674); assay: phosphorylation enrichment, bacterial display (enrichment ratio); higher = better substrate or ligand; peptides without Tyr show the background
Sequence (O60674 whole entry, looked up): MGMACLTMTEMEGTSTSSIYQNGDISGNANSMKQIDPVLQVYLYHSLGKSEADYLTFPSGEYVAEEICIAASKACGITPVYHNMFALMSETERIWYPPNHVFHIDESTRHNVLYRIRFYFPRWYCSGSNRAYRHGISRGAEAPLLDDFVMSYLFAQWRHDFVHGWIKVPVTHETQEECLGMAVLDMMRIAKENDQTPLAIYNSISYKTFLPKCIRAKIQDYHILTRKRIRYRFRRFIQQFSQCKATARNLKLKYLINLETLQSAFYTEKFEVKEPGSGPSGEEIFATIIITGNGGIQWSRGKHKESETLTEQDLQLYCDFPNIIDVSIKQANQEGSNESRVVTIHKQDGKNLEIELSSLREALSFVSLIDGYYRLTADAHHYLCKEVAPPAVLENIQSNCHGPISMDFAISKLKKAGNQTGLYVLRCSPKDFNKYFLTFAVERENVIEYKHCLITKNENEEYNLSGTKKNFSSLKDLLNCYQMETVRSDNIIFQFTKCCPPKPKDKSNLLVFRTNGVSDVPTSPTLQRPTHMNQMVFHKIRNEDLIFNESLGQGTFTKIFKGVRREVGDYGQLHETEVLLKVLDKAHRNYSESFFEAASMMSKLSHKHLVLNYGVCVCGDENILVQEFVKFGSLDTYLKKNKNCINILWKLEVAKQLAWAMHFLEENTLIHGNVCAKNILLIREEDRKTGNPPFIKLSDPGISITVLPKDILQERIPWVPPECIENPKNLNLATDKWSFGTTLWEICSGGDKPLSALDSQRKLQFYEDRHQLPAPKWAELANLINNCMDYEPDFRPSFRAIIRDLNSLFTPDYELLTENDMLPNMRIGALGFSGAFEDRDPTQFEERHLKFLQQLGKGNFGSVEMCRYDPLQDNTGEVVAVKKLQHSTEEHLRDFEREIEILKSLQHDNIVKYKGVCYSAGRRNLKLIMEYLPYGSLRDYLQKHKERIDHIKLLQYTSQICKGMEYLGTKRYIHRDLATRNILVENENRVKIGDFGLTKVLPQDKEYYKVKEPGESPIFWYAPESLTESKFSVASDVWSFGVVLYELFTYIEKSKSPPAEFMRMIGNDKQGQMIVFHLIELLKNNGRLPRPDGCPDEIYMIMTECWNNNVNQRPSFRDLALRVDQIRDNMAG
So I've got a bunch of sequences here, and I need their phosphorylation enrichment values.
Give the value as a plain number.

# input May I ask what phosphorylation enrichment has been recorded for GVRYTYTIDGS [DCX_Y105_I104T] ?
# output 0.981

# input Also need KGSEGYLAATF [NF1_Y2503_YF] , thanks.
# output 0.709

# input What about this sequence? VPLATYMRIYK [RPL21_Y30]
# output 1.01

# input Queued: RQRTAYFSLDT [CDH1_Y68]
# output 0.691

# input Query QNKEDYAGLKE [GSTO1_Y139] next
# output 1.24

# input And the next one, ERTIEYLEEVV [HADHA_Y239_A244V] ?
# output 1.07

# input For FDNPIYQKTTE [LDLR_Y828_V827I] then?
# output 0.681

# input Then RPPFTYATLIR [FOXP3_Y342] ?
# output 1.29

* * *

target: Hck (UniProt P08631); experiment: phosphorylation enrichment, bacterial display (enrichment ratio); higher = better substrate or ligand; peptides without Tyr show the background
Sequence (P08631 whole entry, looked up): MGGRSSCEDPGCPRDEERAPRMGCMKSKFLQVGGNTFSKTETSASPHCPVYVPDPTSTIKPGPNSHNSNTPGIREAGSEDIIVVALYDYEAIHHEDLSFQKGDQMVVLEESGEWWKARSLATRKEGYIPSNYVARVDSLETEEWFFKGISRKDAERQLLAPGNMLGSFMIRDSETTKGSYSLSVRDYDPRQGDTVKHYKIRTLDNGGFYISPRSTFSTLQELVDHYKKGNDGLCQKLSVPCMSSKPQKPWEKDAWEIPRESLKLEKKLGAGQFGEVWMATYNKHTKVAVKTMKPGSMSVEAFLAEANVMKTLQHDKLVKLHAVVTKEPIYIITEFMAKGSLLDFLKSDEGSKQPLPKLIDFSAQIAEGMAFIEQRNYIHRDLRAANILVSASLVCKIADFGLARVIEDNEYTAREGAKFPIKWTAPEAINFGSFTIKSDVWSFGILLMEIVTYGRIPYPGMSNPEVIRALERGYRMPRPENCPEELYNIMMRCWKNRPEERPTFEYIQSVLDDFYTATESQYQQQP
Parameter measured: phosphorylation enrichment
Answer using only a numeral; do not append any unit.

# input Consider the sequence LRVKMYNFLRS [ADGRG7_Y760] and give its measured phosphorylation enrichment.
# output 1.59

# input Same thing, different sequence: VVSLFYGTALF [OR10C1_Y251_M246V]
# output 1.42

# input One more sequence: LVQAEYWHDPI [PPT1_Y185]
# output 0.593

# input Same lookup for FQEKGYNKELR [CHRND_Y38] , please.
# output 0.351

# input Please do the same for NELTFYCFKKD [CD59_Y87_C89Y_YF] as well.
# output 0.448

# input Another sequence to look at: EHTTLYSNNST [KANSL1_Y223]
# output 0.568

# input Another sequence: TYQYKYPEGSS [TGM4_Y440_E437Q]
# output 0.455

# input And then IDPYIYTPFGS [CYP3A4_Y432] , what is it?
# output 5.71

# input Same for SAEKAYHEQFS [TUBA1A_Y282_L286F]
# output 0.458

# input What do you have for TAGFSYEKWEI [TEC_Y360] ?
# output 0.536

# input Next up: EAEPFYRSLRD [NPHS1_Y1139_YF]
# output 0.644

# input Now the sequence HSFNSYTFPRL [PAK5_Y316_YF]
# output 0.525

# input Can you handle ATHSGYRLNDF [CLDN14_Y233_YF] next?
# output 0.391

# input Again, but for RPPFTYATLIR [FOXP3_Y342]
# output 2.58

# input One more sequence: NELTFYCCKKD [CD59_Y87_YF]
# output 0.46

# input Also ENELTYYCCKK [CD59_Y86] ?
# output 2.47

# input # repeat for QNKEDYAGLKE [GSTO1_Y139]
# output 0.82

# input Can you check PDGREYIYVDP [PDGFRA_Y572_H570R] next?
# output 1.28

# input Same thing, different sequence: PICEGYALPHA [ACTC1_Y171_Y168C]
# output 0.535

# input Check NGSKGYAYVHF [PABPC5_Y147] too.
# output 0.499

# input Lookup EREYKYGAHKY [OAT_Y50_N54K]
# output 0.392

# input Entry to check: PSRKDYETFQS [CTNND2_Y1154_P1159S_YF]
# output 0.54

# input Would you mind doing VCHELYNTIRD [PBRM1_Y54] as well?
# output 3.01

* * *

target: Jak2 (UniProt O60674); test: phosphorylation enrichment, bacterial display (enrichment ratio); higher = better substrate or ligand; peptides without Tyr show the background
Parameter measured: phosphorylation enrichment
// keep it numeric: no unit symbol after the value

# input Request the reported phosphorylation enrichment associated with PEIIAYQPFGK [PRKCG_Y529_YF]
# output 0.976

# input Do the same for RGGWVYVLHPT [TRMT61A_Y67] please
# output 1.2

# input Follow-up item: GKVFIYHGSSL [ITGA7_Y458]
# output 1.02

# input Let us now turn to QISRDYGVLLE [PRDX3_Y172]
# output 0.862

# input Same question for TLQWMYGCDVG [HLA-B_Y123_S121W] please.
# output 1.22

# input What do you get for EGVPLYESATT [DCC_Y809] ?
# output 0.988

# input Try this sequence too: GMKIVYVYVKK [DNAI2_Y5_E2K]
# output 0.899

# input // same read-out, input: VITDYYVDMKF [MPP4_Y567]
# output 2.25

# input Ok, now GLDGRYLLRDS [SH2D1A_Y29_S28R]
# output 0.51

# input Now consider DPLLTYWFPPK [LMNA_Y481_R482W] .
# output 5.74

# input Same for CTTIQYNYMCN [TP53_Y234_H233Q]
# output 0.751

# input Also, SRGLAYPARPA [LEMD2_Y122] please.
# output 0.401

# input Lookup IENKLYGMSDS [RET_Y1062_P1067S]
# output 1.08

# input Proceed to EFISEYCGEII [EZH2_Y641]
# output 1.05

# input Do the same for SVVVPYEPPEV [TP53_Y220] please
# output 1

# input # repeat for SHNKFYMLVAH [MFSD8_Y134_R139H_YF]
# output 1.18

# input Now this one: ITKQEYDEAGP [ACTA1_Y364]
# output 0.881

# input And then CYVYYYSYLLK [PTEN_Y178_R173C] , what is it?
# output 1.53

# input Subsequent entry: DVMDFYKTLRG [NR3C1_Y30]
# output 0.685

# input Entry to check: AHLLQYNHQVK [LGALS3_Y221_R224Q]
# output 0.517

# input Field entry: GFPVHYTDMSN [DNMT3B_Y815_V818M]
# output 0.667

# input Now the sequence RRNSPYSQTMK [TET2_Y819]
# output 1.84

# input Again, but for YQKDVYDIPPS [NEDD9_Y177]
# output 0.614

# input Next sequence: KDHPDYKYQLR [SOX10_Y171_P175L]
# output 0.656

# input Follow-up entry: FVSIVYNDFGE [TSC2_Y1650_S1653F]
# output 0.991

# input One more sequence: IKKLIYVFLVI [JAGN1_Y42_H44Y_YF]
# output 0.736

# input Then this sequence: ARLDEYIAIAK [RCOR3_Y46_K42R]
# output 0.683

# input Note, next up: IYHLSYHHNCE [PDE6B_Y227_L228H]
# output 1.03

# input Now give it for MEVEQYIFVKC [CYBB_Y324_G322E] too.
# output 1.53

# input Can you handle REVVNYVQKRS [RMI1_Y450_N455S] next?
# output 0.468

# input Then SDFFAYSPVRE [H6PD_Y449_YF] ?
# output 1.01

# input Subsequent entry: KVVVPYEPPEV [TP53_Y220_S215K]
# output 1

# input Also need AKKKMYSCKTK [AGXT_Y231_R233C] , thanks.
# output 2.73

* * *

biological target: FGFR1 (UniProt P11362); test: phosphorylation enrichment, bacterial display (enrichment ratio); higher = better substrate or ligand; peptides without Tyr show the background
Sequence (P11362 whole entry, looked up): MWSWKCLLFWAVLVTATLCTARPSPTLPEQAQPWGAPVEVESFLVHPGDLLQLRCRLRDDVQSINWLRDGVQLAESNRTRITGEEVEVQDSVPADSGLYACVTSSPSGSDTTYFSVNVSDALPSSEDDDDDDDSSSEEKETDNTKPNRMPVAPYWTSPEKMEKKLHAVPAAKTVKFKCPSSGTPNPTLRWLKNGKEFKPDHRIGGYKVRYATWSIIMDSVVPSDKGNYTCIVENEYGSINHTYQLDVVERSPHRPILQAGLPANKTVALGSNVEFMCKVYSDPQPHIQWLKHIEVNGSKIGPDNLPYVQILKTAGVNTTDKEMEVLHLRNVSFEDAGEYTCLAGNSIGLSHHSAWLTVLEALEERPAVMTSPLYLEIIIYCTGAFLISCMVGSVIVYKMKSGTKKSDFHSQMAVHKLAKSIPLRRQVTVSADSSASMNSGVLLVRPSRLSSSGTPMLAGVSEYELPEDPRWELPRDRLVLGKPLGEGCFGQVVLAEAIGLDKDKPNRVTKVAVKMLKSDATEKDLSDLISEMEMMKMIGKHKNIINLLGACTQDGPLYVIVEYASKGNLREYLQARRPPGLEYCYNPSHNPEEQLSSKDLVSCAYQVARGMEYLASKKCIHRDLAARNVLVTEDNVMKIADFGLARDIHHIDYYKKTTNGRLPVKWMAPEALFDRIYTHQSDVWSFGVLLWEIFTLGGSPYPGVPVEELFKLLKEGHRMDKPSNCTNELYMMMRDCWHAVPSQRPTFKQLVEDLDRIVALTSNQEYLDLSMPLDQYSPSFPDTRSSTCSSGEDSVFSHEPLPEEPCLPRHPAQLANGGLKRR
Consider the following sequences; for each one, report its phosphorylation enrichment.

# input Quick one: phosphorylation enrichment for CTTIHSNFMCN [TP53_Y234_Y234S_YF] ?
# output 0.508

# input Then RHIEKYVDQGK [IRAK3_Y61] ?
# output 0.512

# input Could you do the same for KNNDGNIDYAE [MCFD2_Y135_Y135N] , please?
# output 0.501

# input Another sequence: IIWDSYTTNKV [GNB1_Y85]
# output 0.489

# input Could you do the same for RHAASYSSDSE [REPS1_Y116] , please?
# output 0.513

* * *

molecular target: c-Src SH2; experiment: SH2 binding enrichment of the phosphorylated peptide, bacterial display (enrichment ratio); higher = better substrate or ligand; peptides without Tyr show the background;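 note: peptide library displayed on the E. coli surface as eCPX fusions, selected cells deep-sequenced, score is each peptide's frequency after selection divided by its frequency in the input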
Hi there, I'd appreciate the recorded SH2 binding enrichment for every entry that follows.
Answer with the value's number alone.

# input If you can, please state the reported SH2 binding enrichment value of CSPLLYKVIMS [OR8D4_Y132_R133K] .
# output 0.488

# input Check AHLLQYNHQVK [LGALS3_Y221_R224Q] too.
# output 0.503

# input What about KENITYMKREQ [L1TD1_Y24] ?
# output 0.498

# input What do we get for QGCSIYKDFFR [PLA2G2D_Y82_YF] ?
# output 0.487

* * *

molecular target: EPHB2 (UniProt P29323); experiment: phosphorylation enrichment, bacterial display (enrichment ratio); higher = better substrate or ligand; peptides without Tyr show the background
Sequence (P29323 whole entry, looked up): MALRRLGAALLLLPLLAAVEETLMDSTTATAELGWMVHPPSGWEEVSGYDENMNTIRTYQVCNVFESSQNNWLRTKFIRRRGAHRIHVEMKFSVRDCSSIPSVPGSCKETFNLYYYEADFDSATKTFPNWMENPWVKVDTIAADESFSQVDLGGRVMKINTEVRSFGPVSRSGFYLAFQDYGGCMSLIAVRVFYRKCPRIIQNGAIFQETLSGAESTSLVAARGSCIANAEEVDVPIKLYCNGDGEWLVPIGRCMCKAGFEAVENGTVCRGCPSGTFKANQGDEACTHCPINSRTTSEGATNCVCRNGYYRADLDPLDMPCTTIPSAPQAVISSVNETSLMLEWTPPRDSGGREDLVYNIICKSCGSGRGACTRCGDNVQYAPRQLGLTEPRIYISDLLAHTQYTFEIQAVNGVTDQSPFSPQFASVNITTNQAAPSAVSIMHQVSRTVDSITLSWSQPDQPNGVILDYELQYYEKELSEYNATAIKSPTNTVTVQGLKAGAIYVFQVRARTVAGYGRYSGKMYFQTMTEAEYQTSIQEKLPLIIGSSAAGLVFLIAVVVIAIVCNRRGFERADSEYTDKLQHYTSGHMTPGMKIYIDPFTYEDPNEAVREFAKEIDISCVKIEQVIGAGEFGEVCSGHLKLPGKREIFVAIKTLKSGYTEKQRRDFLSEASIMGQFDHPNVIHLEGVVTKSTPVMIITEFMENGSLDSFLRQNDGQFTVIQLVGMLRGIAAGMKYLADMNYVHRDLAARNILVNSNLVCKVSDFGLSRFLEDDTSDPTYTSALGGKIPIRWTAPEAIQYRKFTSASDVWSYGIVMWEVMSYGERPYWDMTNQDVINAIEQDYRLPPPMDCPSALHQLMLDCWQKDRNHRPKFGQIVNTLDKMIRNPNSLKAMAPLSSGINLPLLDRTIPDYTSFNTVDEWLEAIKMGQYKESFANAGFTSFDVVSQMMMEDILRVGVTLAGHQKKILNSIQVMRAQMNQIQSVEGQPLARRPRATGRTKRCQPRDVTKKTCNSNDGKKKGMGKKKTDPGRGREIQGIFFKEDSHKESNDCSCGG
Consider the following sequences; for each one, report its phosphorylation enrichment.
Please reply with the value in numeric form only.

# input Item under review: EFNINYNNEPP [THG1L_Y228_L232P] . Reported phosphorylation enrichment?
# output 0.566

# input Param item: PVPKTYDMLKA [PKP2_Y108]
# output 0.541

# input Thanks! And DFTSRYLSASD [PKHD1_Y828_N830S] ?
# output 0.564

# input Also need RNVYYYSYLLK [PTEN_Y178_Y174N] , thanks.
# output 5.19

# input Would you kindly repeat that for GMAHNYRNRSQ [AASS_Y188_S191R] ?
# output 0.388

# input Same for YSTPPYLLEAA [BRIP1_Y921_S919P]
# output 0.711

# input Here is the next sequence: WISNRYLDFSS [PRPH2_Y184]
# output 0.535
